Measured values drawn from ChEMBL document CHEMBL4834409 for this set.

Target: Melatonin receptor type 1A (Homo sapiens, UniProt P48039)
Sequence (P48039 whole entry): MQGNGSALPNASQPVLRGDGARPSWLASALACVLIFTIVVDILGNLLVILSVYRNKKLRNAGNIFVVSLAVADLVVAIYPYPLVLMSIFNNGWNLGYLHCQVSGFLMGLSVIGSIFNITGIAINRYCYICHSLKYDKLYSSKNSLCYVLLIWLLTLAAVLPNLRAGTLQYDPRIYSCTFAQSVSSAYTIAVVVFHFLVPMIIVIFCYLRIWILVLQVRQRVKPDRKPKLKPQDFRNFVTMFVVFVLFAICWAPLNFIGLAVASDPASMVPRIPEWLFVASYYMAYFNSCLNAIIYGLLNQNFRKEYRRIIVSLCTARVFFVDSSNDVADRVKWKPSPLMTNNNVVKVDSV
Test: Displacement of 2-[125l]-lodomelatonin from human MT1 expressed in CHO cell membrane incubated for 150 mins by radioligand binding assay
Format: cell membranes
pKi: −log10 of the molar value.
pKi vs 9: at or above is yes (1), below is no (0).

Solved entries:
compound: CC(=O)NCCC1CCc2ccn3nc(C)c(C)c3c21 (configuration not stated)
label: no (0)
//
compound: CC(=O)NCC[C@H]1CCc2ccc3nc(C)oc3c21
label: no (0)
//
compound: CC(=O)NCCC1CCc2ccc3nc(C)sc3c21 (configuration not stated)
label: yes (1)
//
compound: CC(=O)NCCC1CCc2ccc3nc(Cc4ccccc4)oc3c21 (configuration not stated)
label: no (0)
//
compound: CC(=O)NCCC1CCc2ccc3nn(C)cc3c21 (configuration not stated)
label: yes (1)

Now for a further compound.
Reported pKi at or above 9? CCC(=O)NCCC1CCc2ccc3nn(C)cc3c21 (configuration not stated)
yes (1)

* * *

Reported values of log10 microsomal CLint at 1 µM for individual entries
Experiment: Clearance in human hepatic microsomes at 1 umol/L incubated for 20 mins in presence of NADPH generating system by HPLC-UV analysis
Format: ADME, Microsome
Settings: liver microsomes, dose 1 µmol/L, read-out: CLH
Note the log scale: values are log10 of microsomal CLint at 1 µM expressed in µL/min/mg.

Worked cases, answers included:
compound: CCC(=O)NCCC1CCc2ccc3nc(C)sc3c21 (stereo not drawn)
reading: 1.61

compound: CCC(=O)NCCC1CCc2ccc3nc(C)oc3c21 (stereo not drawn)
reading: 1.46

compound: CC(=O)NCCC1CCc2ccc3nc(C)sc3c21 (stereo not drawn)
reading: 1.65

compound: CC(=O)NCCC1CCc2ccc3nn(C)cc3c21 (stereo not drawn)
reading: 0.70

compound: CCC(=O)NCCC1CCc2ccc3nn(C)cc3c21 (stereo not drawn)
reading: 1.36

Can you look up the measured log10 microsomal CLint at 1 µM of CCC(=O)NCC[C@@H]1CCc2ccc3c(c21)CCO3 [RAMELTEON] for me?
1.71

Need log10 microsomal CLint at 1 µM, item CC(=O)NCCC1CCc2ccn3nc(C)cc3c21 (stereo not drawn)
1.15

I have this compound here, CCC(=O)NCCC1CCc2ccn3nc(C)cc3c21 (stereo not drawn) , and I need its recorded log10 microsomal CLint at 1 µM.
1.30

* * *

Test: Clearance in rat hepatic microsomes at 1 umol/L incubated for 20 mins in presence of NADPH generating system by HPLC-UV analysis
Type: ADME, Microsome
Conditions: liver microsomes, dose 1 µmol/L, read-out: CLH
# microsomal CLint at 1 µM per entry
Number only, in µL/min/mg; omit the unit.

Some solved entries appear below for comparison.
compound: CC(=O)NCCC1CCc2ccc3nn(C)cc3c21 (centres undefined)
units.symbol: µL/min/mg
microsomal CLint at 1 µM: 44
--
compound: CC(=O)NCCC1CCc2ccc3nc(C)oc3c21 (racemic)
units.symbol: µL/min/mg
microsomal CLint at 1 µM: 34
--
compound: CC(=O)NCCC1CCc2ccc3nc(C)sc3c21 (centres undefined)
units.symbol: µL/min/mg
microsomal CLint at 1 µM: 188
--
compound: CCC(=O)NCCC1CCc2ccn3nc(C)cc3c21 (centres undefined)
units.symbol: µL/min/mg
microsomal CLint at 1 µM: 84
--
compound: CCC(=O)NCC[C@@H]1CCc2ccc3c(c21)CCO3 [RAMELTEON]
units.symbol: µL/min/mg
microsomal CLint at 1 µM: 126

Using the record for CCC(=O)NCCC1CCc2ccc3nn(C)cc3c21 (centres undefined) , report its microsomal CLint at 1 µM.
79

Consider the compound shown here: CC(=O)NCCC1CCc2ccn3nc(C)cc3c21 (centres undefined) What is its recorded microsomal CLint at 1 µM?
42

Quick one: microsomal CLint at 1 µM of CCC(=O)NCCC1CCc2ccc3nc(C)sc3c21 (centres undefined) ?
379

Given CCC(=O)NCCC1CCc2ccc3nc(C)oc3c21 (centres undefined) , state its recorded microsomal CLint at 1 µM.
96
